These measurements were taken from patent US20180055816A1.

assay: Tolerability in tumor-bearing nude mice (body weight, maximum tolerated dose); assay type: in vivo; settings: male, athymic nude, mouse, in vivo, intraperitoneal, 14 mg/kg; nude mice
property_label: MTD (mg/kg)
Express your answer in mg/kg, writing the number without its unit.

Prompt: Looking for the measured MTD of O=C1C[C@H]2O[C@@H](CCC(F)(F)F)C3=C(C(=O)c4c(Cl)ccc(OP(=O)(O)O)c4C3=O)[C@H]2O1 , can you help?
Completion: 14
